Provide the reported Activity of each item.
- System: HEK293
- assay_summary: Antiproliferative activity against HEK293 cells after 48 hrs by MTT assay
- Format: toxicity, cell-based
- Parameters: concentration or dose not given beside the values
- condition_set: human, hek293, 48 h
Give bare numbers, in %.

The cases that follow already have their Activity on record.
* CS(=O)(=O)Nc1cc(-c2ccc(C(=O)N[C@@H](CO)C(=O)Nc3ccc(Cl)c(C(F)(F)F)c3)cc2)ccn1 | 78
* CC(C)(C)OC[C@H](NC(=O)c1ccc(-c2ccnc(N)c2)cc1)C(=O)Nc1ccc(Cl)c(C(F)(F)F)c1 | 94

Give Activity for each of the items listed below.
1. CC(C)(C)C(=O)Nc1cc(-c2ccc(C(=O)N[C@H](C(=O)Nc3ccc(Cl)c(C(F)(F)F)c3)C(C)(C)C)cc2)ccn1
2. CCN(CC)C(=O)c1cncc(-c2ccc(C(=O)N[C@@H](COC(C)(C)C)C(=O)Nc3ccc(Cl)c(C(F)(F)F)c3)cc2)c1
3. Nc1cc(-c2ccc(C(=O)N[C@@H](CO)C(=O)Nc3ccc(Cl)c(C(F)(F)F)c3)cc2)ccn1
4. CCN(CC)C(=O)c1cncc(-c2cccc(C(=O)N[C@H](C(=O)Nc3ccc(Cl)c(C(F)(F)F)c3)C(C)(C)C)c2)c1

[reply]
[87, 73, 83, 100]

[ask] Can you share its Activity? I mean this compound: O=C(NC1CC1)c1cncc(-c2cccc(C(=O)N[C@@H](CO)C(=O)Nc3ccc(Cl)c(C(F)(F)F)c3)c2)c1
[reply] 99

###

- assay_target: Bcr/Abl fusion protein (Homo sapiens, UniProt P00519)
- Sequence (P00519 whole entry, the tested form may be a part): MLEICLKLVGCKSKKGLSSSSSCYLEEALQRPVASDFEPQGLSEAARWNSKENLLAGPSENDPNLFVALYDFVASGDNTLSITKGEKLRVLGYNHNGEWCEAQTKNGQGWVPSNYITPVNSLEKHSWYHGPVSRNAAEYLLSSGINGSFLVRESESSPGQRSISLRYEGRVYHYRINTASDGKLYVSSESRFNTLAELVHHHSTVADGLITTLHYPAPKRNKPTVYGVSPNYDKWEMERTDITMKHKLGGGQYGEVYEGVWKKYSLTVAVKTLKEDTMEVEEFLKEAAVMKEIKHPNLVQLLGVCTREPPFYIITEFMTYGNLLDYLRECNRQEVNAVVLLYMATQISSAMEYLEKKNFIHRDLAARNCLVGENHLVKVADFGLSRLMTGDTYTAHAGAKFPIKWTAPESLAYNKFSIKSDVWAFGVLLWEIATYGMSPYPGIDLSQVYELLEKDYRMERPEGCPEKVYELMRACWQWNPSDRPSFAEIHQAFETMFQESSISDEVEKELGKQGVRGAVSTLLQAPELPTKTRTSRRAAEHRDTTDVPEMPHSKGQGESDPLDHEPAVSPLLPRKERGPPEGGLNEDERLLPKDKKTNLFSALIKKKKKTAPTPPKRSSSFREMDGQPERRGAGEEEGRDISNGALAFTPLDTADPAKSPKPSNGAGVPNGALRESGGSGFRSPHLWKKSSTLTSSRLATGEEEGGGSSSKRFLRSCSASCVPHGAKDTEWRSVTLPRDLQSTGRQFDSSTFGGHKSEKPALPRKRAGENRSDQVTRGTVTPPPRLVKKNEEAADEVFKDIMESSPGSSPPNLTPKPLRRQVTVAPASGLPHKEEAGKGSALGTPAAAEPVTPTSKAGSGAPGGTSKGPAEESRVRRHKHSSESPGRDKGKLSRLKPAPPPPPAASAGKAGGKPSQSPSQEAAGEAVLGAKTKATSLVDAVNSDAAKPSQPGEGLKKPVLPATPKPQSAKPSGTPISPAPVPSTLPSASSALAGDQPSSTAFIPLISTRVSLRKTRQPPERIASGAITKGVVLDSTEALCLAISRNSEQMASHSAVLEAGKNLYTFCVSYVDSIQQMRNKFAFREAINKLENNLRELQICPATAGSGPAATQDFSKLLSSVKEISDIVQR
- Sequence (P11274 whole entry, further chain, the tested form may be a part): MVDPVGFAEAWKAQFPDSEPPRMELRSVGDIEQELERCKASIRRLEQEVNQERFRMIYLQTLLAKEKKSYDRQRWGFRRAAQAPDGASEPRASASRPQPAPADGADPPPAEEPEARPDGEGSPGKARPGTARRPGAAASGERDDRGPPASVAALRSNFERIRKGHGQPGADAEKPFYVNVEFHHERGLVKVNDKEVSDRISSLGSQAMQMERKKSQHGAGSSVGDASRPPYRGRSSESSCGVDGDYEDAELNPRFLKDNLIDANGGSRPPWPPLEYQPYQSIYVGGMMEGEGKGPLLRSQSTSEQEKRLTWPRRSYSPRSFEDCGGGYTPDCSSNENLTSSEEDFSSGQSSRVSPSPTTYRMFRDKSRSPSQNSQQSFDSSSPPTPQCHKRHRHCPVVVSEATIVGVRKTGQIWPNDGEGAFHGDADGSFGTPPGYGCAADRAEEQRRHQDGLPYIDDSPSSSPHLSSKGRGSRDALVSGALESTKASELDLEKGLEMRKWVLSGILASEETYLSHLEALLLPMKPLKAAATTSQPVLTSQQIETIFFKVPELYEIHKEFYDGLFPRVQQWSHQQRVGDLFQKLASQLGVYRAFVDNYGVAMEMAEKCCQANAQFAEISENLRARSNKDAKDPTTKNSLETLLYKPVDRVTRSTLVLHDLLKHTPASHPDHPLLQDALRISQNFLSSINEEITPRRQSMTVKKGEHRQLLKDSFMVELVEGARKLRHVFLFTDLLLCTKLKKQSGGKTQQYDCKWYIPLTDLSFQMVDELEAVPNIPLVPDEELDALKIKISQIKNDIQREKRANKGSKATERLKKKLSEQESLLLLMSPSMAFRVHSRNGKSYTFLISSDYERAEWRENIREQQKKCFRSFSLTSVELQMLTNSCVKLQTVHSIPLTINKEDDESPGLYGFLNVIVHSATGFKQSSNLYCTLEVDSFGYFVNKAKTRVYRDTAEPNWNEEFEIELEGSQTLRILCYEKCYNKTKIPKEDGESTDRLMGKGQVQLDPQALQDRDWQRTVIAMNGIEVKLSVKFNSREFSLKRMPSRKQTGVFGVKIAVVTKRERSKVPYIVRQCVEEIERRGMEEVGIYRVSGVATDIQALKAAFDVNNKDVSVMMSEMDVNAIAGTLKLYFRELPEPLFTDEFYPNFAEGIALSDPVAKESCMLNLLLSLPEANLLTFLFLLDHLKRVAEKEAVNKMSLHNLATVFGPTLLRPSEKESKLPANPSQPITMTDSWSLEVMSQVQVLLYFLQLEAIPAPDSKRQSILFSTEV
- assay_summary: Inhibition of wild type Bcr-Abl (unknown origin) using Abltide as substrate incubated for 1 hr by luminescence based ADP-glo assay
measurement_name: pIC50
Numbers only, as −log10 of the molar value.

• CC(C)(C)OC[C@H](NC(=O)c1ccc(-c2cncc(C(=O)NC3CC3)c2)cc1)C(=O)Nc1ccc(Cl)c(C(F)(F)F)c1 = 7.81
• CS(=O)(=O)Nc1ccc(-c2cccc(C(=O)N[C@@H](CO)C(=O)Nc3ccc(Cl)c(C(F)(F)F)c3)c2)cn1 = 9.03
• CC(C)(C)C(=O)Nc1cc(-c2ccc(C(=O)N[C@@H](CO)C(=O)Nc3ccc(Cl)c(C(F)(F)F)c3)cc2)ccn1 = 8.30
• Nc1ccc(-c2cccc(C(=O)N[C@@H](CO)C(=O)Nc3ccc(Cl)c(C(F)(F)F)c3)c2)cn1 = 8.80
• O=C(NC1CC1)c1cncc(-c2ccc(C(=O)N[C@@H](CO)C(=O)Nc3ccc(Cl)c(C(F)(F)F)c3)cc2)c1 = 8.95

Give pIC50 for each of the items listed below.
1. CC(C)(C)[C@H](NC(=O)c1cccc(-c2cncc(C(=O)NC3CC3)c2)c1)C(=O)Nc1ccc(Cl)c(C(F)(F)F)c1
2. CC(C)(C)OC[C@H](NC(=O)c1ccc(-c2ccnc(NS(C)(=O)=O)c2)cc1)C(=O)Nc1ccc(Cl)c(C(F)(F)F)c1

[reply]
1: 7.47; 2: 9.48

###

- Test system: HEK293
- assay_summary: Antiproliferative activity against HEK293 cells after 48 hrs by MTT assay
- Format: toxicity, cell-based
- Set-up: concentration or dose not given beside the values
- condition_set: human, hek293, 48 h
measurement_name: Activity

- CC(=O)Nc1cc(-c2ccc(C(=O)N[C@H](C(=O)Nc3ccc(Cl)c(C(F)(F)F)c3)C(C)(C)C)cc2)ccn1: 88%
- CC(C)(C)OC[C@H](NC(=O)c1cccc(-c2cncc(C(=O)NC3CC3)c2)c1)C(=O)Nc1ccc(Cl)c(C(F)(F)F)c1: 95%
- CC(C)(C)OC[C@H](NC(=O)c1ccc(-c2ccnc(C(=O)NC3CC3)c2)cc1)C(=O)Nc1ccc(Cl)c(C(F)(F)F)c1: 84%

Let us move to another entry and its Activity.
[ask] Can you share its Activity? I mean this compound: CC(C)(C)OC[C@H](NC(=O)c1ccc(-c2ccnc(NC(=O)C(C)(C)C)c2)cc1)C(=O)Nc1ccc(Cl)c(C(F)(F)F)c1
[reply] 90%

###

Provide the reported inhibition at 30 µM of each item.
- System: BaF3
- assay_summary: Antiproliferative activity against mouse BaF3 cells harbouring Bcr-Abl T315I assessed of cell viability at 30 uM incubated for 72 hrs by Celltiter-glo luminescent cell viability assay relative to control
- Format: functional

The cases that follow already have their inhibition at 30 µM on record.
• CCN(CC)C(=O)c1cncc(-c2cccc(C(=O)N[C@H](C(=O)Nc3ccc(Cl)c(C(F)(F)F)c3)C(C)(C)C)c2)c1 = 50.8%
• CC(C)(C)OC[C@H](NC(=O)c1cccc(-c2ccc(NC(=O)C(C)(C)C)nc2)c1)C(=O)Nc1ccc(Cl)c(C(F)(F)F)c1 = -5.67%
• CC(C)(C)OC[C@H](NC(=O)c1ccc(-c2ccnc(NS(C)(=O)=O)c2)cc1)C(=O)Nc1ccc(Cl)c(C(F)(F)F)c1 = 96.7%

Let us move to another entry and its inhibition at 30 µM.
[ask] Can you share its inhibition at 30 µM? I mean this molecule: CC(C)(C)OC[C@H](NC(=O)c1cccc(-c2ccc(N)nc2)c1)C(=O)Nc1ccc(Cl)c(C(F)(F)F)c1
[reply] -5%

###

- assay_target: Bcr/Abl fusion protein (Homo sapiens, UniProt P00519)
- assay_summary: Inhibition of wild type Bcr-Abl (unknown origin) using Abltide as substrate incubated for 1 hr by luminescence based ADP-glo assay
pIC50: −log10 of the molar value.
Recorded pIC50 determines the label; the label ranges are zone 1 (below 8), zone 2 (8 to below 9), zone 3 (9 or more)

[ask] Entry CC(C)(C)C(=O)Nc1ccc(-c2cccc(C(=O)N[C@H](C(=O)Nc3ccc(Cl)c(C(F)(F)F)c3)C(C)(C)C)c2)cn1 belongs to which category?
[reply] zone 1

[ask] Entry CC(=O)Nc1ccc(-c2cccc(C(=O)N[C@@H](COC(C)(C)C)C(=O)Nc3ccc(Cl)c(C(F)(F)F)c3)c2)cn1 belongs to which category?
[reply] zone 1

[ask] Entry CC(C)(C)OC[C@H](NC(=O)c1cccc(-c2ccc(NC(=O)C3CC3)nc2)c1)C(=O)Nc1ccc(Cl)c(C(F)(F)F)c1 belongs to which category?
[reply] zone 2

[ask] Entry CCN(CC)C(=O)c1cncc(-c2ccc(C(=O)N[C@H](C(=O)Nc3ccc(Cl)c(C(F)(F)F)c3)C(C)(C)C)cc2)c1 belongs to which category?
[reply] zone 2

[ask] Entry CCN(CC)C(=O)c1cncc(-c2ccc(C(=O)N[C@@H](COC(C)(C)C)C(=O)Nc3ccc(Cl)c(C(F)(F)F)c3)cc2)c1 belongs to which category?
[reply] zone 2

[ask] Entry CC(C)(C)[C@H](NC(=O)c1ccc(-c2ccnc(NS(C)(=O)=O)c2)cc1)C(=O)Nc1ccc(Cl)c(C(F)(F)F)c1 belongs to which category?
[reply] zone 2

[ask] Entry CCN(CC)C(=O)c1cncc(-c2cccc(C(=O)N[C@@H](COC(C)(C)C)C(=O)Nc3ccc(Cl)c(C(F)(F)F)c3)c2)c1 belongs to which category?
[reply] zone 1

[ask] Entry CCN(CC)C(=O)c1cncc(-c2cccc(C(=O)N[C@@H](CO)C(=O)Nc3ccc(Cl)c(C(F)(F)F)c3)c2)c1 belongs to which category?
[reply] zone 2

[ask] Entry CS(=O)(=O)Nc1cc(-c2ccc(C(=O)N[C@@H](CO)C(=O)Nc3ccc(Cl)c(C(F)(F)F)c3)cc2)ccn1 belongs to which category?
[reply] zone 3

[ask] Entry Nc1cc(-c2ccc(C(=O)N[C@@H](CO)C(=O)Nc3ccc(Cl)c(C(F)(F)F)c3)cc2)ccn1 belongs to which category?
[reply] zone 3

[ask] Entry CC(C)(C)OC[C@H](NC(=O)c1cccc(-c2ccc(N)nc2)c1)C(=O)Nc1ccc(Cl)c(C(F)(F)F)c1 belongs to which category?
[reply] zone 3

[ask] Entry CC(=O)Nc1cc(-c2ccc(C(=O)N[C@@H](COC(C)(C)C)C(=O)Nc3ccc(Cl)c(C(F)(F)F)c3)cc2)ccn1 belongs to which category?
[reply] zone 3

[ask] Entry CCN(CC)C(=O)c1cncc(-c2ccc(C(=O)N[C@@H](CO)C(=O)Nc3ccc(Cl)c(C(F)(F)F)c3)cc2)c1 belongs to which category?
[reply] zone 3

[ask] Entry CC(=O)Nc1ccc(-c2cccc(C(=O)N[C@@H](CO)C(=O)Nc3ccc(Cl)c(C(F)(F)F)c3)c2)cn1 belongs to which category?
[reply] zone 3

[ask] Entry CC(C)(C)OC[C@H](NC(=O)c1ccc(-c2ccnc(NC(=O)C(C)(C)C)c2)cc1)C(=O)Nc1ccc(Cl)c(C(F)(F)F)c1 belongs to which category?
[reply] zone 2

###

Provide the reported inhibition at 30 µM of each item.
- System: BaF3
- assay_summary: Antiproliferative activity against mouse BaF3 cells harbouring Bcr-Abl T315I assessed of cell viability at 30 uM incubated for 72 hrs by Celltiter-glo luminescent cell viability assay relative to control
- Assay type: functional
Give bare numbers, in %.

* CC(C)(C)C(=O)Nc1cc(-c2ccc(C(=O)N[C@H](C(=O)Nc3ccc(Cl)c(C(F)(F)F)c3)C(C)(C)C)cc2)ccn1 | 8.24
* CS(=O)(=O)Nc1cc(-c2ccc(C(=O)N[C@@H](CO)C(=O)Nc3ccc(Cl)c(C(F)(F)F)c3)cc2)ccn1 | 5.71
* CC(=O)Nc1cc(-c2ccc(C(=O)N[C@@H](COC(C)(C)C)C(=O)Nc3ccc(Cl)c(C(F)(F)F)c3)cc2)ccn1 | 98.1
* O=C(NC1CC1)c1cncc(-c2ccc(C(=O)N[C@@H](CO)C(=O)Nc3ccc(Cl)c(C(F)(F)F)c3)cc2)c1 | 82.5
* CCN(CC)C(=O)c1cncc(-c2cccc(C(=O)N[C@@H](CO)C(=O)Nc3ccc(Cl)c(C(F)(F)F)c3)c2)c1 | 53.2

Give inhibition at 30 µM for each of the items listed below.
1. CC(C)(C)[C@H](NC(=O)c1ccc(-c2ccnc(NS(C)(=O)=O)c2)cc1)C(=O)Nc1ccc(Cl)c(C(F)(F)F)c1
2. CC(=O)Nc1cc(-c2ccc(C(=O)N[C@H](C(=O)Nc3ccc(Cl)c(C(F)(F)F)c3)C(C)(C)C)cc2)ccn1
3. Nc1ccc(-c2cccc(C(=O)N[C@@H](CO)C(=O)Nc3ccc(Cl)c(C(F)(F)F)c3)c2)cn1
4. CC(C)(C)C(=O)Nc1cc(-c2ccc(C(=O)N[C@@H](CO)C(=O)Nc3ccc(Cl)c(C(F)(F)F)c3)cc2)ccn1
5. CC(C)(C)OC[C@H](NC(=O)c1cccc(-c2ccc(NC(=O)C3CC3)nc2)c1)C(=O)Nc1ccc(Cl)c(C(F)(F)F)c1

[reply]
100
99.8
88.3
99.2
-4.27

Give inhibition at 30 µM for each of the items listed below.
1. CC(C)(C)OC[C@H](NC(=O)c1ccc(-c2ccnc(N)c2)cc1)C(=O)Nc1ccc(Cl)c(C(F)(F)F)c1
2. CCN(CC)C(=O)c1cncc(-c2ccc(C(=O)N[C@@H](COC(C)(C)C)C(=O)Nc3ccc(Cl)c(C(F)(F)F)c3)cc2)c1
3. CC(C)(C)OC[C@H](NC(=O)c1ccc(-c2cncc(C(=O)NC3CC3)c2)cc1)C(=O)Nc1ccc(Cl)c(C(F)(F)F)c1

[reply]
1. 99.8
2. 35
3. 69.7

Give inhibition at 30 µM for each of the items listed below.
1. CCN(CC)C(=O)c1cncc(-c2ccc(C(=O)N[C@H](C(=O)Nc3ccc(Cl)c(C(F)(F)F)c3)C(C)(C)C)cc2)c1
2. CC(C)(C)[C@H](NC(=O)c1ccc(-c2cncc(C(=O)NC3CC3)c2)cc1)C(=O)Nc1ccc(Cl)c(C(F)(F)F)c1

[reply]
1: 42.8; 2: 100

Values from ChEMBL document CHEMBL6083208
